- Test system: U251 CNS
- Assay name: NCI-60 one-dose screen, 48 h (100 = growth as untreated, 0 = no growth, -100 = all killed)
- Setup conditions: 10 µM unless noted
This is part of a sample that, as a whole, favours compounds with a hit. Of some 83,000 tested, about 20% had one in any assay.
Below is a list of entries, each paired with its recorded growth value.
Report as a plain number; the unit % is understood.

# annotated cases, reported growth shown
[[record]]
compound = "CCN(CC)CCCC(C)NCC(=O)NC(c1ccc2c(c1)OCO2)c1cc(Cl)c2cccnc2c1O (stereo not drawn)"
measured_on = "U251 CNS"
readout_number = 30.2

[[record]]
compound = "CCc1ccc(NC(=O)N[C@@H](Cc2cccc(F)c2)C(=O)N[C@@H]2C(=O)N3CCC[C@H]3C(=O)N3CCCC[C@H]3C(=O)N[C@@H](CO)C(=O)N3C[C@H](C)C[C@H]3C(=O)O[C@H]2C)c(F)c1"
measured_on = "U251 CNS"
readout_number = 30.9

[[record]]
compound = "C=C(C)C(=O)O[C@H]1C[C@@]2(C)OC(=CC2=O)[C@H](C)[C@H](O)[C@H]2OC(=O)C(=C)[C@@H]21"
measured_on = "U251 CNS"
readout_number = 86.6


Problem: Given `O=C(NNc1nc2cc(F)ccc2n2cncc12)c1cnccn1` , state its recorded growth.
Solution: 29.8

Problem: growth for `CCOC(=O)c1c(NCC(=O)Nc2ccc(Br)cc2)sc2c1CCCC2` ?
Solution: -6.08

Problem: Requested field: growth. Item: `CN(c1ccc(F)cc1)S(=O)(=O)c1ccc(-c2cnc(C3CC3)o2)cc1`
Solution: 23.3

Problem: Can you look up the measured growth of `O=C(NCCCNc1cc(-c2cn(-c3ccccc3)nc2-c2cccc(O)c2)ccn1)Nc1cc(C(F)(F)F)cc(C(F)(F)F)c1` for me?
Solution: 51.5

Problem: Record request: growth value, item O=S(=O)(NC1CC2CCC1C2)c1ccc2c(c1)C(=NO)c1cc(S(=O)(=O)NC3CC4CCC3C4)ccc1-2 (stereo not drawn)
Solution: -64.2

Each recorded value in this set is attributed to PubChem BioAssay (NCI).
